Please go through the items and note down their %Inh.
# Tested on: LYN
# testConditions: concentration: 1 μM, replicates: in singlicate; n = 1;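 note: KINOMEscan kinase panel screen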
Give the value, in units of %, as a plain number.

Please give the measured %Inh for this molecule: Nc1ncc(-c2ccc3nccc(-c4ccncc4)c3c2)cc1S(=O)(=O)N1CCOCC1
0

Give the measured %Inh of COc1ccc(Nc2nccc(NCCNC(=O)c3cc4ccccc4s3)n2)cc1 .
0

Please look up its %Inh: Cc1ccc(F)c(C(=O)Nc2cccc(-c3nn4ccccc4c3-c3ccnc(Nc4cccc(F)c4)n3)c2)c1F
73

Suppose we examine the molecule C[C@@H]1CC[C@@H](C(=O)Nc2ccccc2)CN1c1cc(-c2ccc3c(N)n[nH]c3c2)nc(N)n1 ; what %Inh value has been reported?
0

For the molecule CC(C)(C)c1ccc2nccc(Nc3cccc(O)c3)c2c1 , what %Inh is on record?
22

---

Exercise: for every item that follows, state its recorded %Inh.
# Tested on: MKNK2
# testConditions: concentration: 1 μM, replicates: in singlicate; n = 1
State the value with its unit after it.

Fill blank: measured %Inh of the compound Cc1occc1-c1ncc(OC[C@@H](N)Cc2c[nH]c3ccccc23)cc1-c1ccc2[nH]nc(C)c2c1.O=C(O)C(F)(F)F [GSK682037] is ____.
0%

I have this compound here, c1ccc(Oc2ccc(Nc3ccnc4cc(-c5ccc(CNCCN6CCOCC6)o5)ccc34)cc2)nc1 [GW567145] , and I need its recorded %Inh.
19%

Consider the compound shown here: COc1cc(Nc2nccc(-c3c(-c4cccc(NC(=O)c5c(F)cccc5F)c4)nn4ccccc34)n2)cc(OC)c1OC [GSK323521] What is its recorded %Inh?
22%

Could you tell me which %Inh is on file for Oc1cc(Nc2ccnc3cc(I)ccc23)ccc1F [GW552771] ?
14%

Entry under review: Nc1ncc(-c2ccc3nccc(-c4ccncc4)c3c2)cc1S(=O)(=O)N1CCOCC1 [GSK1627798] . Reported %Inh?
3%

I would be grateful if you could share the reported %Inh for Cc1ccc(S(=O)(=O)Nc2ccc(Nc3nccc(Nc4cccc5[nH]ncc45)n3)cc2)cc1 [GSK581271] .
1%

%Inh lookup needed for CN(C)S(=O)(=O)c1cc(-c2ccc3nccc(-c4cccc(S(N)(=O)=O)c4)c3c2)cnc1N [GSK1669921] , thanks.
4%

Recorded %Inh for Cl.Cl.NCC(NC(=O)c1cc(-c2ccccc2)c(-c2ccnc3[nH]ccc23)s1)c1ccccc1 (stereo not drawn) [GSK1321561] , please?
19%

Look up %Inh for this compound: O=C(Nc1cccc(-c2nn3ccccc3c2-c2ccnc(Nc3cccc(C(F)(F)F)c3)n2)c1)c1c(F)cccc1F [GSK292658]
1%

---

# Test system: PIP5K1C
# testConditions: concentration: 1 μM, replicates: in singlicate; n = 1
measurementType: %Inh (%)
Respond numerically; units are % and should not be typed.

Dear colleague, I am looking for the recorded %Inh of the following compound: COc1cc2c(cc1OCCN1CCNCC1)ncc1c3ccc(C#N)cc3[nH]c21
1

Requested read-out: %Inh. Entry: COc1cc(Nc2nccc(-c3c(-c4cccc(NC(=O)c5c(F)cccc5F)c4)nn4ccccc34)n2)cc(OC)c1OC
45

Name the recorded %Inh for COC(=O)Nc1nc2cc(Oc3ccc(NC(=O)Nc4cc(C(F)(F)F)ccc4F)cn3)ccc2[nH]1.Cl.Cl .
61

Reported %Inh, compound COc1cc(Nc2ncc3c(C)nc(-c4cc5ccccc5[nH]4)n3n2)cc(OC)c1OC : ____
89
